Molecular target: rhodamine labeled TAR RNA (TAR-Rh)
Test: FRET fluorescence quenching titration of fluorescein labeled Tat peptide with rhodamine labeled TAR RNA
Assay type: binding, HIV-1
Details: quenching of Tat-Fl (5 nM) emission at 512 nm with increasing TAR-Rh, 50 mM Tris-HCl, pH 7.4 at 25° C., 20 mM KCl, fit to quadratic equation (1), read-out: dissociation constant (KD)
Starred links: 1 amine or outer side, 2 acyl side, 3 side chain; linkers in the order of their positions; H or OH if unused. Non-standard residues stand in square brackets, D forms with d. No end group written: not given here. Tyr(3-Ac) = 3-acetyl-tyrosine, CC(=O)c1cc(C[C@H](N[*:1])C(=O)[*:2])ccc1O[*:3]
Reported metric: pKd
In simple prose, pKd is minus the logarithm base ten of a concentration in moles per litre.

-- ask Give pKd (rhodamine labeled TAR RNA (TAR-Rh)) of the following substance: Acetyl-Tyr-Tat peptide: HIV-1 Tat peptide (amino acids 47–56) with Tyr-47 replaced by 3-Acetyl-Tyrosine ([Tyr(3-Ac)]GRKKRRQRR)
-- reply 9.00
